Target: CaAbp1-D2
Experiment: SPOT peptide array binding signal intensity (averaged, normalized) (arbitrary units (background-subtracted, floor 0; scale differs between SH3 domains)); higher = stronger binding of the SH3 domain to the peptide
Give yes when the value for SPOT peptide array binding signal intensity is at least 80. Give no when it is less.

[
  {
    "BINDER": "NHSRSLFSLPGNQQS",
    "CLASSIFICATION": "yes"
  },
  {
    "BINDER": "QPWTDQFEKLEKEVS",
    "CLASSIFICATION": "no"
  },
  {
    "BINDER": "NQARKPFLLPATELS",
    "CLASSIFICATION": "no"
  },
  {
    "BINDER": "IKKRNKIRLPSGSPE",
    "CLASSIFICATION": "yes"
  },
  {
    "BINDER": "LLIRWLILMPLVGSR",
    "CLASSIFICATION": "yes"
  },
  {
    "BINDER": "VSKLRSPNTPRRLRK",
    "CLASSIFICATION": "yes"
  },
  {
    "BINDER": "RTIRKLPLMSLSEYF",
    "CLASSIFICATION": "yes"
  },
  {
    "BINDER": "TTNRGPPPLPPRANV",
    "CLASSIFICATION": "no"
  },
  {
    "BINDER": "KRKRRLPVSEDTNTK",
    "CLASSIFICATION": "yes"
  },
  {
    "BINDER": "ISNFVPPNLPMRRFK",
    "CLASSIFICATION": "no"
  },
  {
    "BINDER": "LTRRFPFLFPFDTRM",
    "CLASSIFICATION": "yes"
  },
  {
    "BINDER": "RKRRTHLRLPLIRSN",
    "CLASSIFICATION": "yes"
  },
  {
    "BINDER": "KRRAPPPVPKKPSSR",
    "CLASSIFICATION": "yes"
  },
  {
    "BINDER": "IPSRPAPKPPSSASA",
    "CLASSIFICATION": "yes"
  },
  {
    "BINDER": "VPVAPPPPPASLGQS",
    "CLASSIFICATION": "no"
  },
  {
    "BINDER": "ILARAILTIPRVLDK",
    "CLASSIFICATION": "no"
  },
  {
    "BINDER": "PPPPPPPPPPPLPQS",
    "CLASSIFICATION": "no"
  },
  {
    "BINDER": "NLPKRKPPKLQGPFS",
    "CLASSIFICATION": "yes"
  },
  {
    "BINDER": "VQQDSLPKLPFRSWG",
    "CLASSIFICATION": "no"
  },
  {
    "BINDER": "LFMKGTPEFPKSGFS",
    "CLASSIFICATION": "yes"
  },
  {
    "BINDER": "ATKSASPTLPTRRSR",
    "CLASSIFICATION": "yes"
  },
  {
    "BINDER": "EEEEEHPPLPARRKS",
    "CLASSIFICATION": "no"
  },
  {
    "BINDER": "PLRRTVMSLPGNHDI",
    "CLASSIFICATION": "yes"
  },
  {
    "BINDER": "ALRRRLPVTRSKINW",
    "CLASSIFICATION": "yes"
  },
  {
    "BINDER": "GTIARPLFLVVLFFI",
    "CLASSIFICATION": "no"
  },
  {
    "BINDER": "VDFTLPPPPPPPGLD",
    "CLASSIFICATION": "no"
  },
  {
    "BINDER": "DLFKPLPEPPTELGR",
    "CLASSIFICATION": "no"
  },
  {
    "BINDER": "APPLPPTAPPPPSLP",
    "CLASSIFICATION": "no"
  },
  {
    "BINDER": "FLIKFTPKFPQSIDH",
    "CLASSIFICATION": "yes"
  }
]
